B1: unnamed (parent)
chain 1: PCVVGGQADTIYPAIANQMAHQMHEDAQTEASKRGLAKLRADAKQGIYKKNRKPQELSNICNITLQHSNDSRNGNNGGACTGKDGNNERFKIGTEWKIGEKVETTDTDAYIPPRRQHMCTSNLENLNVSWVTEDGKAIHSLLGDVQLAAKMDADEIIKRYKKHNTLTDPIQQKDQESICRAVRYSFADLGDIIRGRDLWEHGDQTKLQGHLQIIFGKIKEEIKKKHPGINGNDKYKGDEKNNPPYKQLREDWWEANRHQVWRAMQCELKNLKKSNGDCHYNSRGTPLDDYIPQRLRWMVEWAEWFCKMQSQEYDKLMKQCSQCMSKGGDCRKGDVNCTSCEQACEEYKKKIKKWEKQWNKIKDKYEELYLQAKIAFAGTSFGGGDRDYQQMVHFFKELQKVTGDTTLGDTTSPYSTAAGYIHQEGHVDECTEQTQFCKNRNGNTASGKEDDNYTFKDPPPKYANACKCD
chain 2: QTSVSPSKVILPRGGSVLVTCSTSCDQPKLLGIETPLPKKELLLPGNNRKVYELSNVQEDSQPMCYSNCPDGQSTAKTFLTVYWTPERVELAPLPSWQPVGKNLTLRCQVEGGAPRANLTVVLLRGEKELKREPAVGEPAEVTTTVLVRRDHHGANFSCRTELDLRPQGLELFENTSAPYQLQTFVLPATPPQLVSPRVLEVDTQGTVVCSLDGLFPVSEAQVHLALGDQRLNPTVTYGNDSFSAKASVSVTAEDEGTQRLTCAVILGNQSQETLQTVTIYSFPAPNVILTKPEVSEGTEVTVKCEAHPRAKVTLNGVPAQPLGPRAQLLLKATPEDNGRSFSCSATLEVAGQLIHKNQTRELRVLYGPRLDERDCPGNWTWPENSQQTPMCQAWGNPLPELKCLKDGTFPLPIGESVTVTRDLEGTYLCRARSTQGEVTRKVTVNVLSPRYE

variants of: B1; test: SPR; details: with partner chain of the complex shown; top curve of the dilution series (250 nM), read at end of injection (~250 s); parent: 260; read off a plot
reported endpoint: response (RU)
Just the number in RU, nothing appended.

// query Which value of response has been reported for chain 1 N241A in the records?
// result 280

// query Try this variant next: chain 1 L370D
// result 70

// query Also check chain 1 Q389A
// result 280

Next:
// query What does the record list as response for chain 1 G383A ?
// result 270

// query Try this variant next: chain 1 L407D
// result 220

// query Do the same for chain 1 E366A please
// result 190

// query # iterate: chain 1 G382A G383A
// result 280

// query Ok, now chain 1 N242A
// result 270

// query Same question for chain 1 G382A G383A G384A please.
// result 260
